# measured-on: Muscarinic acetylcholine receptor M4 (Homo sapiens)
# Sequence (whole entry): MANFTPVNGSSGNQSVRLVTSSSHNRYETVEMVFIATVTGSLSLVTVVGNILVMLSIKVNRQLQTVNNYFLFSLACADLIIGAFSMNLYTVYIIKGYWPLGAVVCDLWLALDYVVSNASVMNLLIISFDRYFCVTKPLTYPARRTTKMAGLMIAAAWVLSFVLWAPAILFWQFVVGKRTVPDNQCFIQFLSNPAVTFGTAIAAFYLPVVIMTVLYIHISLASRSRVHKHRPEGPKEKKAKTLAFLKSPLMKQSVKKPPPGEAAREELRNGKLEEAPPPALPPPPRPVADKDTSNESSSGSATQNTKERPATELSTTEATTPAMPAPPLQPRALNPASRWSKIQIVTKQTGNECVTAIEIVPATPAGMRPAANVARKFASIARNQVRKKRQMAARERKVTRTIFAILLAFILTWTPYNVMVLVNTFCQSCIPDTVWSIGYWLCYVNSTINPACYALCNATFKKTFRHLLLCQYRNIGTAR
# assay-procedure: Logarithm of affinity (log 1/M) at the (N-methyl Scopolamine) NMS-liganded muscarinic acetylcholine receptor M4 by using semiquantitative equilibrium and off-rate assay
measured-property: Log 1/M

{"smi": "O=C1CCc2cc3c(c4c5cc(Cl)ccc5n1c24)CCNC3", "Log 1/M": 6.14}
{"smi": "COC(=O)c1ccc2c3c4c(cc5c3n(c2c1)C(=O)CC5)CNCC4", "Log 1/M": 6.01}
{"smi": "COC(=O)c1ccc2c(c1)c1c3c(cc4c1n2C(=O)CC4)CNCC3", "Log 1/M": 6}
{"smi": "O=C1CCc2cc3c(c4c5cc(O)ccc5n1c24)CNCC3", "Log 1/M": 5.9}
{"smi": "COc1cc2c3c4c(cc5c3n(c2cc1OC)C(=O)CC5)CNCC4", "Log 1/M": 6.05}
{"smi": "Cc1ccc2c(c1)c1c3c(cc4c1n2C(=O)CC4)CNCC3", "Log 1/M": 5.97}
{"smi": "COc1ccc2c3c4c(cc5c3n(c2c1)C(=O)CC5)CNCC4", "Log 1/M": 6.14}

Sourced from ChEMBL document CHEMBL1135887
